EXPERIMENT: Solubility at pH 6.8
Format: physicochemical
TEST_PARAMETERS: pH 6.8, aqueous buffer, thermodynamic from solid; read-out: solubility
READOUT_TYPE: log10 solubility (log10 of the value in µg/mL)
The base-10 logarithm of solubility, taken with solubility in µg/mL, is what appears here.

stdin: Note log10 solubility for the compound shown: CCOc1ccc(-c2ccc3ncc4c(c3c2)n(-c2c(C)nn(C)c2C)c(=O)n4C)cc1OC [Example 29.2]
stdout: 0.85

stdin: Please report the measured log10 solubility for CNc1ncc(-c2ccc3ncc4c(c3c2)n(-c2cn(C)nc2C)c(=O)n4C)cc1C(F)(F)F [Example 144.3]
stdout: 1.64

stdin: Find the measured log10 solubility of CCc1ncc(-c2ccc3ncc4c(c3c2)n(-c2cn(C)nc2C)c(=O)n4C)cc1N [Example 208] and report it.
stdout: 2.12

stdin: Identify measured log10 solubility corresponding to CCn1cc(-n2c(=O)n(C)c3cnc4ccc(-c5cnc(NC)c(Cl)c5)cc4c32)c(C)n1 [Example 146.2]
stdout: 0.78

stdin: Provide only the value of recorded log10 solubility for Cc1nn(C)cc1-n1c(=O)n(C)c2cnc3ccc(-c4cnc5ccn(C)c5c4)cc3c21 [Example 129]
stdout: 1.32

stdin: Name the recorded log10 solubility of the item CCOc1cc(-c2ccc3ncc4c(c3c2)n(-c2cn(C)nc2C)c(=O)n4C)cnc1CO [Example 243] in your answer.
stdout: 1.63

stdin: Answer with the recorded log10 solubility for the compound listed here: COCCOc1cncc(-c2ccc3ncc4c(c3c2)n(-c2cn(C)nc2Cl)c(=O)n4C)c1 [Example 59.2]
stdout: 0.78

stdin: Look up and report measured log10 solubility for this entry: Cc1nn(C)cc1-n1c(=O)n(C)c2cnc3ccc(-c4ccc(N5CC[C@H](O)C5)nc4)cc3c21 [Example 212.2]
stdout: 1.63

stdin: Give log10 solubility for the following compound: Cc1nn(C)cc1-n1c(=O)n(C)c2cnc3ccc(-c4cccc(C(N)=O)c4)cc3c21 [Example 46]
stdout: 0.90

stdin: Kindly indicate its recorded log10 solubility. Item: COCc1cncc(-c2ccc3ncc4c(c3c2)n(-c2cn(C)nc2C)c(=O)n4C)c1 [Example 54.1]
stdout: 2.21

stdin: Please give the documented log10 solubility of Cc1ncc(-c2ccc3ncc4c(c3c2)n(-c2cn(C)nc2C)c(=O)n4C)cc1NS(C)(=O)=O [Example 76]
stdout: 1.11

stdin: Complete the entry with log10 solubility for CCOc1cncc(-c2ccc3ncc4c(c3c2)n(-c2c(C)cnn2C)c(=O)n4C)c1 [Example 56.5]
stdout: 1.20

stdin: State, in one line, measured log10 solubility of Cc1nn(C)cc1-n1c(=O)n(C)c2cnc3ccc(-c4cnc5ccccc5c4)cc3c21 [Example 38]
stdout: 1.11

stdin: Provide one value: measured log10 solubility of CNc1cc(-c2ccc3ncc4c(c3c2)n(-c2cn(C)nc2C)c(=O)n4C)cnc1F [Example 150.2]
stdout: 0.60

stdin: Report measured log10 solubility; entry is CCOc1ccc(-c2ccc3ncc4[nH]c(=O)n(-c5cn(CC(=O)N6CCN(C)CC6)nc5C)c4c3c2)cn1 [Example 133]
stdout: 1.86

stdin: Output measured log10 solubility for this item: CCN(C)c1cncc(-c2ccc3ncc4c(c3c2)n(-c2cn(C)nc2C)c(=O)n4C)c1 [Example 176]
stdout: 1.77

stdin: Answer with the recorded log10 solubility for the compound listed here: COc1cc(-c2ccc3ncc4c(c3c2)n(-c2cn(C)nc2C)c(=O)n4C)cnc1CO [Example 193]
stdout: 2.18

stdin: Give the reported value of log10 solubility for this record: CCNc1ncc(-c2ccc3ncc4c(c3c2)n(-c2cn(C)nc2C)c(=O)n4C)cc1COC [Example 206.1]
stdout: 0.90

stdin: Answer with the recorded log10 solubility of Cc1nn(C)cc1-n1c(=O)n(C)c2cnc3ccc(-c4cccnc4)cc3c21 [Example 10.2] only.
stdout: 1.62

stdin: Quickly give me recorded log10 solubility for COc1cncc(-c2ccc3ncc4c(c3c2)n(-c2cn(C)nc2C)c(=O)n4C)c1 [Example 12]
stdout: 1.59

stdin: Note down log10 solubility recorded for CCOc1ccc(-c2ccc3ncc4c(c3c2)n(-c2cn(CC(=O)N(C)C)nc2C)c(=O)n4C)cn1 [Example 3.9]
stdout: 1.81

stdin: Read the entry Cc1nn(C)cc1-n1c(=O)n(C)c2cnc3ccc(-c4cncnc4)cc3c21 [Example 26] and write its reported log10 solubility.
stdout: 2.38

stdin: Query log10 solubility for CNc1ccc(-c2ccc3ncc4c(c3c2)n(-c2cn(C)nc2C)c(=O)n4C)cn1 [Example 118.2]
stdout: 1.48

stdin: Output log10 solubility of Cc1cc(-n2c(=O)n(C)c3cnc4ccc(-c5cccnc5F)cc4c32)n(C)n1 [Example 9]
stdout: 0.95

stdin: Give me measured log10 solubility, please, for this compound: COCc1cc(-c2ccc3ncc4c(c3c2)n(-c2cn(C)nc2C)c(=O)n4C)cnc1OC [Example 202]
stdout: 1.20

stdin: Give a short answer stating reported log10 solubility for Cc1nn(C)cc1-n1c(=O)n(C)c2cnc3ccc(-c4cccc5c4OC(F)(F)O5)cc3c21 [Example 35] .
stdout: 0.48

stdin: State, in one line, measured log10 solubility of CCn1cc(-n2c(=O)n(C)c3cnc4ccc(-c5ccc(CO)nc5)cc4c32)c(C)n1 [Example 16.1]
stdout: 1.88
